# Tested on: CAMK2D
# experimental_conditions: concentration: 1 μM, replicates: in singlicate; n = 1;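 also: KINOMEscan kinase panel screen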
recorded_endpoint: %Inh (%)
One number for each entry, in %.

Below: 3 compounds and their reported %Inh.
Clc1cc(Nc2ncnc3cc[nH]c23)ccc1OCc1ccccn1; 19
CC(C)(C)c1ccc(-n2cnc3c(N)ncnc32)cc1 [SKF-97263]; 2
O=C(CCO)NCCn1ccc2ncnc(Nc3ccc(Oc4cccc(C(F)(F)F)c4)c(Cl)c3)c21; 0

Dear colleague, could you please provide %Inh for the compounds listed below?
1. O=C(Nc1ccccc1)Nc1ccc(Oc2ccc3nccn3n2)cc1
2. COc1cc2c(Nc3cccc(NC(=O)c4ccccc4)c3)ncnc2cc1OCCCN1CCOCC1 [GSK223810]
3. CSc1nn2c(=O)cc(N3CCOCC3)nc2n1Cc1cccc(Cl)c1Cl [GSK2347225]
4. Cl.Cl.c1ccc(-c2cc3ccncc3cc2OC2CCNCC2)cc1 [GSK1122999]
5. COc1ccc(NC(=O)c2ccc(-c3cc(-c4nnc(C)o4)ccc3C)cc2)cc1 [GW595885]
6. CNc1nccc(-c2c(-c3ccc(F)cc3)ncn2C2CCN(C)CC2)n1 [SB-222903]
7. COc1ccc(-c2nc3n(c2-c2ccncc2)CCC3)cc1 [SKF-104493]

**Result**
0
0
21
26
0
0
0

Dear colleague, could you please provide %Inh for the compounds listed below?
1. Clc1ccc(-c2cc(-c3c[nH]nc3-c3ccccn3)ccn2)cc1 [GW681251]
2. Nc1nccc2scc(-c3ccc4c(c3)CCN4C(=O)Cc3cc(F)ccc3F)c12 [GSK2587663]
3. O=C(NCCCN1CCCC1=O)c1cnc(NCc2cc(Cl)ccc2Cl)nc1NC1CCNCC1

**Result**
1. 0
2. 9
3. 0

---

# System: MAK
# experimental_conditions: concentration: 1 μM, replicates: in singlicate; n = 1
condition met means recorded %Inh is 10% or above; condition not met means it is below 10%.

**Query** Hi, just wondering whether COc1ccc(Nc2nccc(N3CCC(NC(=O)c4cccc(NC(C)=O)c4)C3)n2)cc1 (stereo not drawn) [GSK1379732] shows %Inh of 10% or higher.
**Result** condition met

**Query** Hi, just wondering whether COc1cc2c(Nc3cccc(NC(=O)c4ccccc4)c3)ncnc2cc1OCCCN1CCOCC1 [GSK223810] shows %Inh of 10% or higher.
**Result** condition not met

---

# System: CSNK1D
# experimental_conditions: concentration: 1 μM, replicates: in singlicate; n = 1
Hi there, I'd appreciate the recorded %Inh for every entry that follows.
Field note: include the unit after the figure.

Below: 5 molecules and their reported %Inh.
CC(C)(C)OC(=O)NC1CCCN(c2cc(-c3ccc4c(N)n[nH]c4c3)nc(N)n2)C1 (centres unmarked); 5%
CCCc1ccc(S(=O)(=O)NC2CCN(c3ccnc(Nc4ccc(OC)cc4)n3)C2)cc1 (centres unmarked); 14%
Nc1nc(-c2ccccn2)c(-c2ccnc3ccccc23)s1; 83%
Fc1ccc(Nc2nccc(-c3c(-c4ccc(Cl)cc4)nn4ncccc34)n2)cc1F; 60%
Cc1cc(N2CCC(NS(=O)(=O)c3ccc(F)cc3)CC2)nc(Nc2cccc(C#N)c2)n1.O=C(O)C(F)(F)F; 27%

Dear colleague, could you please provide %Inh for the molecules listed below?
1. CN1CCC(n2cnc(-c3ccc(F)cc3)c2-c2ccnc(NC3CCNCC3)n2)CC1
2. C[C@@H]1CCN(C(=O)CO)C[C@@H]1N(C)c1ncnc2[nH]ccc12

**Result**
1. 92.1%
2. 6%

Dear colleague, could you please provide %Inh for the molecules listed below?
1. CN1c2ccc(-c3ccc(C(=O)NCCO)cc3)cc2-c2[nH]ncc2S1(=O)=O
2. Fc1ccc(-c2ncn(CCCNCc3ccccc3)c2-c2ccncc2)cc1
3. CSc1nn2c(=O)cc(N3CCOCC3)nc2n1Cc1cccc(Cl)c1Cl
4. Cn1cc(-c2ccc3c(c2)CCN3C(=O)Cc2cccc(C(F)(F)F)c2)c2c(N)ncnc21

**Result**
["5%", "96.6%", "13%", "8%"]
